target: Calcium/calmodulin-dependent protein kinase type 1D (Homo sapiens) (UniProt Q8IU85)
Sequence (Q8IU85 whole entry, looked up): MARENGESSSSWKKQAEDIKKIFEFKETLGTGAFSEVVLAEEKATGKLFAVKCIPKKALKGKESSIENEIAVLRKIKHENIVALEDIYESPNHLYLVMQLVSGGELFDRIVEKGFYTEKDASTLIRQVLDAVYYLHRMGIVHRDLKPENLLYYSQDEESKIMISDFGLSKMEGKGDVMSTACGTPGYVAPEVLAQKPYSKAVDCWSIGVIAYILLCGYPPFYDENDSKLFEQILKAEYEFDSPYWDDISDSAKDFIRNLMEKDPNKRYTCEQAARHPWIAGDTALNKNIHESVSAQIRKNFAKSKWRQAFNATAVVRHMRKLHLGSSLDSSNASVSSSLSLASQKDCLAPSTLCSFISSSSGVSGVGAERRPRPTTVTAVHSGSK
observation.type: ΔTm (°C)

| compound | unit.name | endpoint.result |
| --- | --- | --- |
| C[C@@H]1C[C@H]2O[C@@H]2/C=C\C=C\C(=O)Cc2c(Cl)c(O)cc(O)c2C(=O)O1 | °C | 0 |
| NC(=O)c1ccc(-c2nc(-c3ccc4c(c3)OCCO4)c(-c3ccccn3)[nH]2)cc1 | °C | 0 |
| COc1cc(/C=C/C(=O)CC(=O)/C=C/c2ccc(O)c(OC)c2)ccc1O | °C | 2 |
| O=C1Cc2c([nH]c3ccc(Br)cc23)-c2ccccc2N1 | °C | 1 |
| Oc1cc(O)cc(/C=C/c2ccc(O)c(O)c2)c1 | °C | 1.1 |
| O=c1cc(N2CCOCC2)oc2c1ccc1ccccc12 | °C | 0 |
| Cc1nc(N)sc1-c1ccnc(Nc2cccc([N+](=O)[O-])c2)n1 | °C | 2.5 |

====

Here's a batch of molecules along with measured ΔTm for 3-phosphoinositide-dependent protein kinase 1 (Homo sapiens) (UniProt O15530).
observation.type: ΔTm (°C)

| compound | endpoint.result |
| --- | --- |
| O=c1cc(N2CCOCC2)oc2c1ccc1ccccc12 | 0 |
| CCOC(=O)c1cnc2oc3ccc(O)cc3c2c1-c1ccccc1 | -0.5 |
| COc1cc2ncnc(Nc3ccc(NC(=O)c4ccccc4)cc3)c2cc1OC | 1.1 |
| Cn1cnc2c(NCc3ccccc3)nc(NCCO)nc21 | 0 |
| CCOc1cc2ncnc(Nc3cccc(Br)c3)c2cc1OCC | -0.9 |
| COc1cc2ncnc(Nc3cccc(Br)c3)c2cc1OC | 0 |
| N#C/C(=C\c1ccc(O)c(O)c1)C(=O)NCc1ccccc1 | 0.5 |
| N#C/C(=C1/Nc2ccccc2S1)c1ccnc(NCCc2cccnc2)n1 | -0.1 |

====

target: Serine/threonine-protein kinase VRK1 (Homo sapiens)
Measured ΔTm accompanies every entry in the list below.

| molecule | ΔTm (°C) |
| --- | --- |
| Cc1cc(Nc2nc(-c3ccccc3)nc3ccccc23)n[nH]1 | 0.8 |
| O=C1Nc2ccc(S(=O)(=O)O)cc2/C1=C1/Nc2ccccc2/C1=N\O | 0 |
| CN(C)C[C@@H]1CCn2cc(c3ccccc32)C2=C(C(=O)NC2=O)c2cn(c3ccccc23)CCO1 [RUBOXISTAURIN] | 0.8 |
| O=c1ccc2ccc(O)c(O)c2o1 [DAPHNETIN] | 0 |

====

Here's a batch of compounds along with measured ΔTm for Serine/threonine-protein kinase 26 (Homo sapiens).
observation.type: ΔTm

| compound | observation.type | endpoint.result |
| --- | --- | --- |
| Cc1nc(Nc2ncc(C(=O)Nc3c(C)cccc3Cl)s2)cc(N2CCN(CCO)CC2)n1 | ΔTm | -0.4 °C |
| CC(C)n1cnc2/c(=N/c3cccc(Cl)c3)nc(NCCO)[nH]c21 | ΔTm | 2.1 °C |
| O=C1c2ccccc2-c2n[nH]c3cccc1c23 | ΔTm | 2.1 °C |
| C[S+]([O-])c1ccc(CSc2nc(-c3ccc(F)cc3)c(-c3ccncc3)[nH]2)cc1 (stereo not drawn) | ΔTm | 0.4 °C |
| Cl.Cn1cc(C2=C(c3ccc4cc5n(c4c3)CCC(CN)C5)C(=O)NC2=O)c2ccccc21 (stereo not drawn) | ΔTm | 1.2 °C |
| O=C1NC(=O)c2c1c1c3ccccc3[nH]c1n1cncc21 [ISOGRANULATIMIDE] | ΔTm | 2.5 °C |
| COc1cc2ncnc(Nc3ccc(NC(=O)c4ccccc4)cc3)c2cc1OC | ΔTm | 1.8 °C |
| COc1ccc(COc2ccc(Cc3cnc(N)nc3N)cc2OC)cc1 | ΔTm | 0.9 °C |
| C[C@@H]1C[C@H]2O[C@@H]2/C=C\C=C\C(=O)Cc2c(Cl)c(O)cc(O)c2C(=O)O1 | ΔTm | -0.2 °C |
| CC(C)[C@H](CO)Nc1nc(Nc2cc(N)cc(Cl)c2)c2ncn(C(C)C)c2n1 | ΔTm | 4.3 °C |
| CCN(CC)CCNC(=O)c1c(C)[nH]c(/C=C2\C(=O)Nc3ccc(Cl)cc32)c1C | ΔTm | 3.8 °C |
| Cc1c2ccncc2c(C)c2c1[nH]c1ccccc12 | ΔTm | 0.4 °C |
| NC(=O)c1ccc2[nH]c(-c3ccc(Oc4ccc(Cl)cc4)cc3)nc2c1 | ΔTm | -0.1 °C |
| CN1CCC(Nc2ncc3ncnc(Nc4ccc(F)c(Cl)c4)c3n2)CC1 | ΔTm | 6.7 °C |
| C#Cc1cccc(Nc2ncnc3cc(OCCOC)c(OCCOC)cc23)c1 | ΔTm | -0.4 °C |
| O=S(=O)(c1cccc2c(Cl)cccc12)N1CCCNCC1 | ΔTm | 0 °C |
| COc1cc(O)c2c(c1)oc(=O)c1c3cc(O)c(O)cc3oc21 | ΔTm | 1.4 °C |
| Oc1cccc(-c2nc(N3CCOCC3)c3oc4ncccc4c3n2)c1 | ΔTm | 0.2 °C |
| COc1nccc(-c2c(-c3ccc(F)cc3)ncn2[C@H]2CC[C@H](O)CC2)n1 | ΔTm | -1.4 °C |
| O=c1c(-c2ccc(O)cc2)coc2cc(O)cc(O)c12 | ΔTm | 1 °C |
| O=c1cc(N2CCOCC2)oc2c1ccc1ccccc12 | ΔTm | 0.5 °C |
| O=C1Cc2c([nH]c3ccc(Br)cc23)-c2ccccc2N1 | ΔTm | 1.4 °C |
| COc1ccc(CNc2nc(N(CCO)CCO)nc3c2ncn3C(C)C)cc1 | ΔTm | 0.8 °C |
| N=C(N)NCCNS(=O)(=O)c1cccc2cnccc12 | ΔTm | -0.3 °C |
| O=[N+]([O-])c1ccc(-c2nc(-c3ccc(F)cc3)c(-c3ccncc3)[nH]2)cc1 | ΔTm | 0.7 °C |
| Cc1cc(C=C2C(=O)C=CC2=O)cc(C)c1O | ΔTm | 0.4 °C |
| O=C(O)Cc1ccc(O)c([N+](=O)[O-])c1 | ΔTm | -0.4 °C |
| N#C/C(=C\c1ccc(O)c(O)c1)C(=O)NCc1ccccc1 | ΔTm | 0.1 °C |

====

Measured ΔTm accompanies every entry in the list below.
target: Serine/threonine-protein kinase RIO2 (Homo sapiens) (UniProt Q9BVS4)
Sequence (Q9BVS4 whole entry, looked up): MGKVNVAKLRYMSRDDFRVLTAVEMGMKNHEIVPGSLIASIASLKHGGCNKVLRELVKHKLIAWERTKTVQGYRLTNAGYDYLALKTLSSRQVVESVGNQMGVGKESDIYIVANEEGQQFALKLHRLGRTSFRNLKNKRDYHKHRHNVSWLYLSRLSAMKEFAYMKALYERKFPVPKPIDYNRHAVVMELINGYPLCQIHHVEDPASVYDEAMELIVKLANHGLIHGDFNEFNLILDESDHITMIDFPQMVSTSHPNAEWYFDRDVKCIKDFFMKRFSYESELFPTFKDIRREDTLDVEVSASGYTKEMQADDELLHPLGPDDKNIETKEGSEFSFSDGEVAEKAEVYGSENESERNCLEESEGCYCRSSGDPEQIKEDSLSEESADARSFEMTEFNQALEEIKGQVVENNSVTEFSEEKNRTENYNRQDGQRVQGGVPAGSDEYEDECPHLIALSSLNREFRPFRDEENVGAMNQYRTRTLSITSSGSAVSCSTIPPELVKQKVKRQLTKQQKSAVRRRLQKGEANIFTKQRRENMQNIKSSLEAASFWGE

| compound | system.under.test | ΔTm, °C |
| --- | --- | --- |
| NS(=O)(=O)c1ccc(Nc2nc(OCC3CCCCC3)c3nc[nH]c3n2)cc1 | Serine/threonine-protein kinase RIO2 (Homo sapiens) (UniProt Q9BVS4) | 4 |
| C[C@@H](N)[C@H]1CC[C@H](C(=O)Nc2ccncc2)CC1 | Serine/threonine-protein kinase RIO2 (Homo sapiens) (UniProt Q9BVS4) | 0.3 |
| COc1cc2c(cc1OC)-c1n[nH]c(Nc3cccc(F)c3)c1C2 | Serine/threonine-protein kinase RIO2 (Homo sapiens) (UniProt Q9BVS4) | -0.2 |
| Nc1n[nH]c2nnc(-c3c(-c4ccccc4)nn4ccccc34)cc12 | Serine/threonine-protein kinase RIO2 (Homo sapiens) (UniProt Q9BVS4) | -0.4 |
| O=S(=O)(c1cccc2c(Cl)cccc12)N1CCCNCC1 | Serine/threonine-protein kinase RIO2 (Homo sapiens) (UniProt Q9BVS4) | 0.3 |
| Nc1n[nH]c2nc3ccccc3nc12 | Serine/threonine-protein kinase RIO2 (Homo sapiens) (UniProt Q9BVS4) | 0.4 |
| N#CCCc1ccc2c(c1)-c1[nH]c3ccc([N+](=O)[O-])cc3c1CC(=O)N2 | Serine/threonine-protein kinase RIO2 (Homo sapiens) (UniProt Q9BVS4) | 1.2 |
| N#C/C(=C\c1ccc(O)c(O)c1)C(=O)NCc1ccccc1 | Serine/threonine-protein kinase RIO2 (Homo sapiens) (UniProt Q9BVS4) | 1.5 |
| NC(=O)c1ccc(-c2nc(-c3ccc4c(c3)OCCO4)c(-c3ccccn3)[nH]2)cc1 | Serine/threonine-protein kinase RIO2 (Homo sapiens) (UniProt Q9BVS4) | 0.7 |
| O=C1NC(=O)C(c2c[nH]c3ccccc23)=C1c1c[nH]c2ccccc12 | Serine/threonine-protein kinase RIO2 (Homo sapiens) (UniProt Q9BVS4) | 0 |
| OC[C@H]1O[C@@H](n2cnc3cc(Cl)c(Cl)cc32)[C@H](O)[C@@H]1O | Serine/threonine-protein kinase RIO2 (Homo sapiens) (UniProt Q9BVS4) | 0.7 |

====

molecular target: Tyrosine-protein kinase JAK1 (Homo sapiens) (UniProt P23458)
Sequence (P23458 whole entry): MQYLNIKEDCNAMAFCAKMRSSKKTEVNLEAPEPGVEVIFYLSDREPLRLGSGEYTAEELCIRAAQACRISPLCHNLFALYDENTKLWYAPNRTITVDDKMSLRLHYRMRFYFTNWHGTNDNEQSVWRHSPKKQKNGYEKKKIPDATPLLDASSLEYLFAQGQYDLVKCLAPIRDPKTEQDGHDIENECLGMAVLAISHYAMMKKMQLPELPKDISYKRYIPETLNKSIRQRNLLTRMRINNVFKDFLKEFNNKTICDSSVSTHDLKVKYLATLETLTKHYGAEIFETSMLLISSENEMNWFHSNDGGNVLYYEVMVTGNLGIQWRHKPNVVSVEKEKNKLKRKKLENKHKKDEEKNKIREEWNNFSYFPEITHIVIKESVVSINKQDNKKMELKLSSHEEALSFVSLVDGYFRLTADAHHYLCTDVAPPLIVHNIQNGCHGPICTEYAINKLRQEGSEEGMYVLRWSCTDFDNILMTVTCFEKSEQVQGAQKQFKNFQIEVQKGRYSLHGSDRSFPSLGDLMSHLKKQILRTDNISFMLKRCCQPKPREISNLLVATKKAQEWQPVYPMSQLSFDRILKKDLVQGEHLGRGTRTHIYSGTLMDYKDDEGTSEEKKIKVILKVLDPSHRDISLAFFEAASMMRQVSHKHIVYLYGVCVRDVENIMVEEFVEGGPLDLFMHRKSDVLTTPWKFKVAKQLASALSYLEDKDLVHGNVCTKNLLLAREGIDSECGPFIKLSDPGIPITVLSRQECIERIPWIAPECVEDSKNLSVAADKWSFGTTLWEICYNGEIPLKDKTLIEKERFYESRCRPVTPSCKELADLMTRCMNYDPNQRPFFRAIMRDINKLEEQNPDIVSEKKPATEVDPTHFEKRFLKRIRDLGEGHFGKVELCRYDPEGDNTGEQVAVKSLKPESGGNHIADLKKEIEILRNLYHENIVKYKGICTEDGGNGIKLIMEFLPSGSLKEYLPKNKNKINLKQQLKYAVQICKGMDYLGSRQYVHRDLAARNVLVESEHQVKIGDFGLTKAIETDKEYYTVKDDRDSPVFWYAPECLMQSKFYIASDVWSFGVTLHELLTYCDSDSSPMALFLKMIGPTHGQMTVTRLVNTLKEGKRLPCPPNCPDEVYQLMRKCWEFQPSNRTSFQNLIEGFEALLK
// classify: if (ΔTm < 1 °C) yes else no

| compound | system.under.test | qualitative.label |
| --- | --- | --- |
| CC(C)(C)n1nc(-c2cccc3ccccc23)c2c(N)ncnc21 | Tyrosine-protein kinase JAK1 (Homo sapiens) (UniProt P23458) | yes |
| CN(C)c1ncnc2nc[nH]c12 | Tyrosine-protein kinase JAK1 (Homo sapiens) (UniProt P23458) | yes |
| Clc1ccc(Nc2nnc(Cc3ccncc3)c3ccccc23)cc1 | Tyrosine-protein kinase JAK1 (Homo sapiens) (UniProt P23458) | no |
| Cc1cc(Nc2nc(-c3ccccc3)nc3ccccc23)n[nH]1 | Tyrosine-protein kinase JAK1 (Homo sapiens) (UniProt P23458) | no |
| NC1=NC(=O)/C(=C2\CCNC(=O)c3[nH]c(Br)cc32)N1 | Tyrosine-protein kinase JAK1 (Homo sapiens) (UniProt P23458) | yes |
| COC1=C2C[C@@H](C)C[C@H](OC)[C@H](O)[C@@H](C)/C=C(\C)[C@H](OC(N)=O)[C@@H](OC)/C=C\C=C(/C)C(=O)NC(=CC1=O)C2=O | Tyrosine-protein kinase JAK1 (Homo sapiens) (UniProt P23458) | yes |
| O=C1Nc2ccc(I)cc2/C1=C1/Nc2ccccc2/C1=N\O | Tyrosine-protein kinase JAK1 (Homo sapiens) (UniProt P23458) | no |
| c1ccc(-c2n[nH]c3c2oc2ccccc23)cc1 | Tyrosine-protein kinase JAK1 (Homo sapiens) (UniProt P23458) | no |
| COc1ccc2c(c1)/C(=C/c1cnc[nH]1)C(=O)N2 | Tyrosine-protein kinase JAK1 (Homo sapiens) (UniProt P23458) | no |
| Cc1cncc2cccc(S(=O)(=O)N3CCCNC[C@@H]3C)c12 | Tyrosine-protein kinase JAK1 (Homo sapiens) (UniProt P23458) | yes |
| NC(=O)c1ccc(-c2nc(-c3ccc4c(c3)OCCO4)c(-c3ccccn3)[nH]2)cc1 | Tyrosine-protein kinase JAK1 (Homo sapiens) (UniProt P23458) | no |
| NCCNc1ncc(C(N)=O)c(Nc2cccc(C(F)(F)F)c2)n1 | Tyrosine-protein kinase JAK1 (Homo sapiens) (UniProt P23458) | no |
| NS(=O)(=O)c1ccc(Nc2nc(OCC3CCCCC3)c3nc[nH]c3n2)cc1 | Tyrosine-protein kinase JAK1 (Homo sapiens) (UniProt P23458) | no |
| O=S(=O)(NCCNC/C=C/c1ccc(Br)cc1)c1cccc2cnccc12 | Tyrosine-protein kinase JAK1 (Homo sapiens) (UniProt P23458) | yes |
| CCOc1ccc(/C=C2/SC(=O)N(CCN)C2=O)cc1 | Tyrosine-protein kinase JAK1 (Homo sapiens) (UniProt P23458) | yes |
| CCN(CC)CCNC(=O)c1c(C)[nH]c(/C=C2\C(=O)Nc3ccc(Cl)cc32)c1C | Tyrosine-protein kinase JAK1 (Homo sapiens) (UniProt P23458) | no |
| COc1cc(OC)c(/C=C2\C(=O)Nc3ccccc32)c(OC)c1 | Tyrosine-protein kinase JAK1 (Homo sapiens) (UniProt P23458) | yes |
| CC(C)n1cnc2/c(=N/c3cccc(Cl)c3)nc(NCCO)[nH]c21 | Tyrosine-protein kinase JAK1 (Homo sapiens) (UniProt P23458) | no |
| C[S+]([O-])c1ccc(CSc2nc(-c3ccc(F)cc3)c(-c3ccncc3)[nH]2)cc1 (stereo not given) | Tyrosine-protein kinase JAK1 (Homo sapiens) (UniProt P23458) | yes |
| NC(=O)c1ccc2[nH]c(-c3ccc(Oc4ccc(Cl)cc4)cc3)nc2c1 | Tyrosine-protein kinase JAK1 (Homo sapiens) (UniProt P23458) | no |
| COc1cc2ncnc(Nc3cccc(Br)c3)c2cc1OC | Tyrosine-protein kinase JAK1 (Homo sapiens) (UniProt P23458) | no |
| O=C(O)c1cc(N(Cc2ccccc2O)Cc2cc(O)ccc2O)ccc1O | Tyrosine-protein kinase JAK1 (Homo sapiens) (UniProt P23458) | yes |
| N#C/C(=C\c1ccc(O)c(O)c1)C(=O)NCc1ccccc1 | Tyrosine-protein kinase JAK1 (Homo sapiens) (UniProt P23458) | no |
| N#C/C(=C1/Nc2ccccc2S1)c1ccnc(NCCc2cccnc2)n1 | Tyrosine-protein kinase JAK1 (Homo sapiens) (UniProt P23458) | no |
| CN(C)C[C@@H]1CCn2cc(c3ccccc32)C2=C(C(=O)NC2=O)c2cn(c3ccccc23)CCO1 | Tyrosine-protein kinase JAK1 (Homo sapiens) (UniProt P23458) | yes |
